Assay: total protein half-life in vivo (active degradation + dilution); higher = more stable protein
Conditions: wild type E. coli NCM3722; growth: N-lim chemostat; doubling time 12 h
# reported total protein half-life in vivo; entries follow
Include the unit right after the number.

Worked cases, answers included:
[
  {
    "sequence.entry": "MMQHQVNVSARFNPETLERVLRVVRHRGFHVCSMNMAAASDAQNINIELTVASPRSVDLLFSQLNKLVDVAHVAICQSTTTSQQIRA [P0ADG1]",
    "total protein half-life in vivo": "0.848 h"
  },
  {
    "sequence.entry": "MLEILYQDEWLVAVNKPSGWLVHRSWLDRDEKVVVMQTVRDQIGQHVFTAHRLDRPTSGVLLMGLSSEAGRLLAQQFEQHQIQKRYHAIVRGWLMEEAVLDYPLVEELDKIADKFAREDKGPQPAVTHYRGLATVEMPVATGRYPTTRYGLVELEPKTGRKHQLRRHLAHLRHPIIGDSKHGDLRQNRSGAEHFGLQRLMLHASQLSLTHPFTGEPLTIHAGLDDTWMQALSQFGWRGLLPENERVEFSAPSGQDGEISS [P0AA41]",
    "total protein half-life in vivo": "6.98 h"
  },
  {
    "sequence.entry": "MMEQSLIPQTPVLPLTAQRTVKRALTLLDRHLRETGVAFTSTQAARDWLKLKMAGLEREEFMMLYLNQQNQLIAHETLFAGSISSTEVHPREVVKRALYFNAAAVILAHNHPSGDTTPSQADKTITQRLVQALQLVDIRVPDHLIVGGRQIYSFAEHGLL",
    "total protein half-life in vivo": "8.33 h"
  },
  {
    "sequence.entry": "MKYRIALAVSLFALSAGSYATTLCQEKEQNILKEISYAEKHQNQNRIDGLNKALSEVRANCSDSQLRADHQKKIAKQKDEVAERQQDLAEAKQKGDADKIAKRERKLAEAQEELKKLEARDY",
    "total protein half-life in vivo": "9.61 h"
  },
  {
    "sequence.entry": "MSEKLQKVLARAGHGSRREIESIIEAGRVSVDGKIAKLGDRVEVTPGLKIRIDGHLISVRESAEQICRVLAYYKPEGELCTRNDPEGRPTVFDRLPKLRGARWIAVGRLDVNTCGLLLFTTDGELANRLMHPSREVEREYAVRVFGQVDDAKLRDLSRGVQLEDGPAAFKTIKFSGGEGINQWYNVTLTEGRNREVRRLWEAVGVQVSRLIRVRYGDIPLPKGLPRGGWTELDLAQTNYLRELVELPPETSSKVAVEKDRRRMKANQIRRAVKRHSQVSGGRRSGGRNNNG",
    "total protein half-life in vivo": "9.66 h"
  },
  {
    "sequence.entry": "MTKQPPIAKADLQKTQGNRAPAAVKNSDVISFINQPSMKEQLAAALPRHMTAERMIRIATTEIRKVPALGNCDTMSFVSAIVQCSQLGLEPGSALGHAYLLPFGNKNEKSGKKNVQLIIGYRGMIDLARRSGQIASLSARVVREGDEFSFEFGLDEKLIHRPGENEDAPVTHVYAVARLKDGGTQFEVMTRKQIELVRSLSKAGNNGPWVTHWEEMAKKTAIRRLFKYLPVSIEIQRAVSMDEKEPLTIDPADSSVLTGEYSVIDNSEE",
    "total protein half-life in vivo": "3.39 h"
  },
  {
    "sequence.entry": "MSTFKPLKTLTSRRQVLKAGLAALTLSGMSQAIAKDELLKTSNGHSKPKAKKSGGKRVVVLDPGHGGIDTGAIGRNGSKEKHVVLAIAKNVRSILRNHGIDARLTRSGDTFIPLYDRVEIAHKHGADLFMSIHADGFTNPKAAGASVFALSNRGASSAMAKYLSERENRADEVAGKKATDKDHLLQQVLFDLVQTDTIKNSLTLGSHILKKIKPVHKLHSRNTEQAAFVVLKSPSVPSVLVETSFITNPEEERLLGTAAFRQKIATAIAEGVISYFHWFDNQKAHSKKR",
    "total protein half-life in vivo": "8.42 h"
  },
  {
    "sequence.entry": "MIKKIFALPVIEQISPVLSRRKLDELDLIVVDHPQVKASFALQGAHLLSWKPAGEEEVLWLSNNTPFKNGVAIRGGVPVCWPWFGPAAQQGLPAHGFARNLPWTLKSHHEDADGVALTFELTQSEETKKFWPHDFTLLAHFRVGKTCEIDLESHGEFETTSALHTYFNVGDIAKVSVSGLGDRFIDKVNDAKENVLTDGIQTFPDRTDRVYLNPQDCSVINDEALNRIIAVGHQHHLNVVGWNPGPALSISMGDMPDDGYKTFVCVETAYASETQKVTKEKPAHLAQSIRVAKR",
    "total protein half-life in vivo": "13.7 h"
  }
]

Noted for MRQTKTGILLANLGTPDAPTPEAVKRYLKQFLSDRRVVDTSRLLWWPLLRGVILPLRSPRVAKLYASVWMEGGSPLMVYSRQQQQALAQRLPEMPVALGMSYGSPSLESAVDELLAEHVDHIVVLPLYPQFSCSTVGAVWDELARILARKRSIPGISFIRDYADNHDYINALANSVRASFAKHGEPDLLLLSYHGIPQRYADEGDDYPQRCRTTTRELASALGMAPEKVMMTFQSRFGREPWLMPYTDETLKMLGEKGVGHIQVMCPGFAADCLETLEEIAEQNREVFLGAGGKKYEYIPALNATPEHIEMMANLVAAYR : its total protein half-life in vivo reads 12.1 h

Noted for MHPRFQTAFAQLADNLQSALEPILADKYFPALLTGEQVSSLKSATGLDEDALAFALLPLAAACARTPLSNFNVGAIARGVSGTWYFGANMEFIGATMQQTVHAEQSAISHAWLSGEKALAAITVNYTPCGHCRQFMNELNSGLDLRIHLPGREAHALRDYLPDAFGPKDLEIKTLLMDEQDHGYALTGDALSQAAIAAANRSHMPYSKSPSGVALECKDGRIFSGSYAENAAFNPTLPPLQGALILLNLKGYDYPDIQRAVLAEKADAPLIQWDATSATLKALGCHSIDRVLLA [P0ABF6] : its total protein half-life in vivo reads 8.62 h

Noted for MIKSALLVLEDGTQFHGRAIGATGSAVGEVVFNTSMTGYQEILTDPSYSRQIVTLTYPHIGNVGTNDADEESSQVHAQGLVIRDLPLIASNFRNTEDLSSYLKRHNIVAIADIDTRKLTRLLREKGAQNGCIIAGDNPDAALALEKARAFPGLNGMDLAKEVTTAEAYSWTQGSWTLTGGLPEAKKEDELPFHVVAYDFGAKRNILRMLVDRGCRLTIVPAQTSAEDVLKMNPDGIFLSNGPGDPAPCDYAITAIQKFLETDIPVFGICLGHQLLALASGAKTVKMKFGHHGGNHPVKDVEKNVVMITAQNHGFAVDEATLPANLRVTHKSLFDGTLQGIHRTDKPAFSFQGHPEASPGPHDAAPLFDHFIELIEQYRKTAK [P0A6F1] : its total protein half-life in vivo reads 7.43 h
